# measurementTarget: biotinylated His-Avi-TEAD (194-411) (UniProt P28347)
# experimentNotes: SSM screen, enrichment after two rounds of sorting
enrichment score overview
Could you keep your reply to the number by itself?

Output enrichment score of GSPDEYIERHKECCKKGDIQCCLRYFEESGDPNVMLICLFCP (designed binder) [A08H variant of SEQ ID NO: 1]
-7.27

Give the measured enrichment score for GSPDEYIERAKECCKKGDWQCCLRYFEESGDPNVMLICLFCP (designed binder) [I17W variant of SEQ ID NO: 1]
-10.4

State its enrichment score: GSPDEYIERAGECCKKGDIQCCLRYFEESGDPNVMLICLFCP (designed binder) [K09G variant of SEQ ID NO: 1]
-0.48

Report enrichment score, nothing else, for this binder: GSPDEYKERAKECCKKGDIQCCLRYFEESGDPNVMLICLFCP (designed binder) [I05K variant of SEQ ID NO: 1]
-1.5

// fetch enrichment score given entry GSPDEYIERAKECCKKYDIQCCLRYFEESGDPNVMLICLFCP (designed binder) [G15Y variant of SEQ ID NO: 1]
-1.14

Entry GSPDTYIERAKECCKKGDIQCCLRYFEESGDPNVMLICLFCP (designed binder) [E03T variant of SEQ ID NO: 1] needs its enrichment score filled in; supply it.
1.19
